Assay: Solubility in water
Format: physicochemical
// reported solubility for each item listed

Cn1cnc(S(=O)(=O)NCCOc2ccc3c(c2)[C@@H](Cc2ccccc2)[C@@H](N2CCC2)CC3)c1: > 1000 µg/mL

In the following, a different molecule is considered.
Fill blank: measured solubility of the molecule `Cn1cnc(S(=O)(=O)NCCOc2ccc3c(c2)[C@@H](Cc2ccccc2)[C@@H](N2CCCC2)CC3)c1` is ____. > 1000 µg/mL

---

Assay: Oral bioavailability in dog
Type: ADME, organism-based, Canis lupus familiaris
Conditions: in vivo
measure-name: bioavailability (%)

Cn1cnc(S(=O)(=O)NCCOc2ccc3c(c2)[C@@H](Cc2ccccc2)[C@@H](N2CCC2)CC3)c1: 75

I: Cn1cnc(S(=O)(=O)NCc2ccc3c(c2)[C@@H](Cc2ccccc2)[C@@H](N2CCC2)CC3)c1 (relative stereo)
II: Cn1cnc(S(=O)(=O)NCCOc2ccc3c(c2)[C@@H](Cc2ccccc2)[C@@H](N2CCCC2)CC3)c1
From the recorded data, which exceeds the other in bioavailability: I or II ? Pick one; state its label. I

---

Assay: Drug level in Sprague-Dawley rat brain at 0.2 mg/kg, ip measured after 8 to 24 hrs by LC-MS/MS method
Assay type: ADME, organism-based
Details: in vivo, read-out: Drug uptake
measure-name: concentration (nM)
Give just the numeric value; nM need not be written.

Form field: reported concentration of `O=S(=O)(CC1CC1)NC1CN(c2ccc3c(c2)[C@@H](Cc2ccccc2)[C@@H](N2CCC2)CC3)C1` 0.9

---

Experiment: Permeability in MDCK2-MDR1 cells at 1 uM incubated fro 1 hr by LC-MS/MS method
Assay type: ADME, cell-based, Canis lupus familiaris
Conditions: dog, MDCK-MDR1; read-out: permeability
measure-name: Papp at 1 h, 1 µM (×10⁻⁶ cm/s)

Cn1cnc(S(=O)(=O)NCCOc2ccc3c(c2)[C@@H](Cc2ccccc2)[C@@H](N2CCCC2)CC3)c1: 17
Cn1cnc(S(=O)(=O)NCCOc2ccc3c(c2)[C@@H](Cc2ccccc2)[C@@H](N2CCC2)CC3)c1: 22

---

Assay: Clearance in rat liver microsomes at 0.5 uM incubated up to 30 mins in presence of NADPH by LC-MS/MS method
Assay type: ADME, microsome
Conditions: read-out: CLH
measure-name: microsomal CLint at 0.5 µM (µL/min/mg)

Worked cases, microsomal CLint at 0.5 µM given:
O=S(=O)(CC1CC1)NCCOc1ccc2c(c1)[C@@H](Cc1ccccc1)[C@@H](N1CCC1)CO2 (relative stereo): 239
CCCCS(=O)(=O)NCCOc1ccc2c(c1)[C@@H](Cc1ccc(Cl)c(Cl)c1)[C@@H](N)CC2 (relative stereo): 35
N[C@H]1CCc2ccc(OCCNS(=O)(=O)C3CCC3)cc2[C@H]1Cc1ccc(Cl)c(Cl)c1 (relative stereo): 49
CCCS(=O)(=O)N[C@@H]1CCN(c2ccc3c(c2)[C@@H](Cc2ccccc2)[C@@H](N2CCC2)CC3)C1=O: 33
CCCS(=O)(=O)NCc1ccc2c(c1)[C@@H](Cc1ccccc1)[C@@H](N1CCC1)CC2 (relative stereo): 302

a: N[C@H]1CCc2ccc(OCCNS(=O)(=O)c3ccccc3)cc2[C@H]1Cc1ccc(Cl)c(Cl)c1
b: O=S(=O)(CC1CC1)NCCOc1ccc2c(c1)[C@@H](Cc1ccccc1)[C@@H](N1CCC1)CC2
c: Oc1ccc2c(c1)C(C1(c3ccc(Cl)cc3)CCC1)NCC2 (configuration not stated)
d: CCCS(=O)(=O)NCCOc1ccc2c(c1)[C@@H](Cc1ccc(Cl)c(Cl)c1)[C@@H](N)CC2 (relative stereo)
e: N[C@H]1CCc2ccc(OCCNS(=O)(=O)c3cccs3)cc2[C@H]1Cc1ccc(Cl)c(Cl)c1 (relative stereo)
Highest microsomal CLint at 0.5 µM first, then in falling order down to the smallest. List the labels in the requested order. c, b, e, a, d
(c: 343 µL/min/mg, b: 137 µL/min/mg, e: 95 µL/min/mg, a: 40 µL/min/mg, d: 17 µL/min/mg)

A: Cn1cnc(S(=O)(=O)NCCOc2ccc3c(c2)[C@@H](Cc2ccccc2)[C@@H](N2CCC2)CO3)c1
B: O=S(=O)(CC1CC1)NC1CN(c2ccc3c(c2)[C@@H](Cc2ccccc2)[C@@H](N2CCC2)CO3)C1 (relative stereo)
// pick min by microsomal CLint at 0.5 µM: A , B Return value: the label identifying the chosen record. A

A: Cn1cc(S(=O)(=O)NCCOc2ccc3c(c2)[C@@H](Cc2ccc(Cl)c(Cl)c2)[C@@H](N)CC3)cn1 (relative stereo)
B: O=S(=O)(CC1CC1)NC1CN(c2ccc3c(c2)[C@@H](Cc2ccccc2)[C@@H](N2CCC2)CC3)C1
Which of the two items, A and B , has the greater recorded microsomal CLint at 0.5 µM? Reply briefly: the label of your chosen item. B

I: CCCS(=O)(=O)NC1CN(c2ccc3c(c2)[C@@H](Cc2ccccc2)[C@@H](N2CCC2)CC3)C1
II: CCCS(=O)(=O)NCCOc1ccc2c(c1)C(C1(c3ccc(Cl)cc3)CCC1)NCC2 (configuration not stated)
III: CCCS(=O)(=O)NC1CN(c2ccc3c(c2)[C@@H](Cc2ccccc2)[C@@H](N2CCC2)CO3)C1 (relative stereo)
List items by microsomal CLint at 0.5 µM in falling order. Output spec: a listing of the labels in the requested order. II, III, I
